Biological target: PD-1/PD-L1 interaction (Homo sapiens, UniProt Q9NZQ7)
Construct: Tag1 or Tag2 (undisclosed kit tag); purchased Cisbio
Sequence (Q9NZQ7 19-238 limits assumed): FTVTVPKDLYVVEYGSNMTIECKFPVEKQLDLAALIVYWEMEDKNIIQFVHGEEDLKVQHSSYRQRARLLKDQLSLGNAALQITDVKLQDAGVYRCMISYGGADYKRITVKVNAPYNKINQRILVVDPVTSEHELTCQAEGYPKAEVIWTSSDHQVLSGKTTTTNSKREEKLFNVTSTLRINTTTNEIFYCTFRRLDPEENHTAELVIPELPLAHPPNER
Test: Cisbio PD-1/PD-L1 Homogeneous Time-Resolved Fluorescence (HTRF) binding assay
Conditions: Table 9; same result in μM; read-out: Reported IC50
Quick reference: IC50 of the listed items.
endpoint: IC50 (µM)

compound: COc1cc(C(=O)N2CCN(Cc3csc(NC[C@H]4CCCN4Cc4ccc(Br)cc4)n3)CC2)cc(OC)c1OC [Compound A706]
endpoint: IC50
display-unit: µM
value-comparator: =
val: 13
//
compound: COc1cc(C(=O)N2CCN(Cc3csc(NC[C@@H]4C[C@@H](O)CN4Cc4ccc(Br)cc4)n3)CC2)cc(OC)c1OC [Compound A704]
endpoint: IC50
display-unit: µM
value-comparator: =
val: 0.089
//
compound: COc1cc(C(=O)N2CCN(Cc3csc(NC[C@@H]4CCCN4Cc4cccc(Br)c4)n3)CC2)cc(OC)c1OC [Compound A305]
endpoint: IC50
display-unit: µM
value-comparator: =
val: 36
//
compound: COc1cc(C(=O)N2CCN(Cc3csc(NC[C@@H]4CCCN4Cc4ccccc4Br)n3)CC2)cc(OC)c1OC [Compound A306]
endpoint: IC50
display-unit: µM
value-comparator: =
val: 40
//
compound: COc1ccc(C(=O)N2CCN(Cc3csc(NC[C@@H]4CCCN4Cc4ccc(Br)cc4)n3)CC2)cc1 [Compound A401]
endpoint: IC50
display-unit: µM
value-comparator: =
val: 1.2
//
compound: Cc1ccc(C(=O)N2CCN(Cc3csc(NC[C@@H]4CCCN4Cc4ccc(Br)cc4)n3)CC2)cc1 [Compound B408]
endpoint: IC50
display-unit: µM
value-comparator: >
val: 50
//
compound: COc1cc(C(=O)N2C[C@@H](C)N(Cc3csc(NC[C@@H]4CCCN4Cc4ccc(Br)cc4)n3)C[C@H]2C)cc(OC)c1OC [Compound A608]
endpoint: IC50
display-unit: µM
value-comparator: =
val: 1.6

Attribution: patent US20230219942A1
